Cited source: ChEMBL document CHEMBL4152377

# experiment.summary: Plasma concentration in mouse after 12 hrs
# Type: ADME, cell-free
Lab note: anything with concentration at 12 h below 500 nM is marked Yes; values at 500 nM or higher are marked No.

Problem: For the compound "O=S(=O)(c1ccc(Oc2cncc(Cl)c2)c2c1[C@H](O)C(F)(F)C2)C(F)F" , is concentration at 12 h under 500 nM?
No

Problem: For the compound "N#Cc1cc(F)cc(Oc2ccc(S(=O)(=O)C(F)F)c3c2CC(F)(F)[C@H]3O)c1" , is concentration at 12 h under 500 nM?
Yes

Problem: For the compound "N#Cc1cc(F)cc(Oc2ccc(S(=O)(=O)CF)c3c2CC(F)(F)[C@H]3O)c1" , is concentration at 12 h under 500 nM?
No

Problem: For the compound "CS(=O)(=O)c1ccc(Oc2cc(F)cc(C#N)c2)c2c1[C@H](O)C(F)(F)C2" , is concentration at 12 h under 500 nM?
Yes

Problem: For the compound "N#Cc1cc(F)cc(Oc2ccc3c(c2C(F)F)[C@@H](O)C(F)(F)S3(=O)=O)c1" , is concentration at 12 h under 500 nM?
Yes
